B1: DNA-binding protein HU, P0A3H0 (parent)
chain: MNKTELINAVAETSGLSKKDATKAVDAVFDSITEALRKGDKVQLIGFGNFEVRERAARKGRNPQTGEEMEIPASKVPAFKPGKALKDAVK

- Variants of: B1
- run_conditions: Geobacillus stearothermophilus; pH 7; 63.9 °C; Thermal; CD; Sodium phosphate 5 mM; NaCl 0.2 M; reversible: yes; structure 1HUE; whole UniProt chain shown
measurement_label: ddG of mutation (higher = less stable) (kcal/mol)
Number in kcal/mol, nothing else.

Report measured ddG of mutation (higher = less stable); entry is S31T
-0.41

Determine from records and report ddG of mutation (higher = less stable) for M69I
0

State its ddG of mutation (higher = less stable) for this variant: A56S
0.13

Tell me its ddG of mutation (higher = less stable) given V42I as the entry.
0.82

Hey, just so you know, these numbers are from FireProtDB (doi:10.1074/jbc.273.32.19982).
